Below: a set of entries, each annotated with reported CC50.
Assay: in vitro
Settings: human

>  <compound>
COc1ccc(C=O)cc1 [P-anisaldehyde]

>  <measurement label>
CC50

>  <recorded result>
> 50 µM

$$$$
>  <compound>
CC(=O)OCc1ccccc1 [Benzyl acetate]

>  <measurement label>
CC50

>  <recorded result>
> 50 µM

$$$$

Now, please, on to the next compound.
The compound C=CCc1ccc(O)c(OC)c1 [Eugenol] showed CC50 equal to > 50 µM

###

Test system: HeLa cells
Conditions: read-out: HeLa CC50; n=2
measurement label: CC50

In plain terms, CC(=O)OCCc1ccccc1 [Phenethyl acetate] has a documented CC50 of > 50 µM

###

System: EBOV
Test: microbe, parasite or virus in culture
Type: cell-based, Ebola virus
Details: read-out: EC50 Activity against EBOV; n=4
measurement label: EC50

>  <compound>
COc1ccc(C=O)cc1 [P-anisaldehyde]

>  <tested on>
EBOV

>  <EC50>
2.9 µM

$$$$

Sure, the documented EC50 for CC(=O)OCc1ccccc1 [Benzyl acetate] is 10.7 µM
